Data origin: PubChem BioAssay (NCI)

Tested on: SK-MEL-2 melanoma
Experiment: NCI tumour cell line growth inhibition, 48 h
Hi there, I'd appreciate the recorded GI50 for every entry that follows.

Tell me the measured GI50 of "C[C@H]1[C@H](C)CC[C@]2(C(=O)N3CCN(C)CC3)CC[C@]3(C)C(=CC[C@@H]4[C@@]5(C)C/C(=C/c6cccnc6)C(=O)C(C)(C)[C@@H]5CC[C@]43C)[C@H]12" , please.
1530 nM

Param item: "O=Cc1cn(Cc2cccc(Cl)c2)c2ccccc12"
7700 nM

And the next one, "Cc1ccc(/C=C2/SC(Nc3nc(-c4nc(NC5=NC(=O)/C(=C\c6ccc(C)cc6)S5)sc4C)c(C)s3)=NC2=O)cc1" ?
36300 nM

"COc1ccc2c(c1)c(-c1nc(-c3c[nH]c4ncccc34)cs1)cn2CCCCN1CCOCC1" ?
1970 nM

Now this one: "O=C1C=C[C@@]23C[C@@H](Nc4c(O)c5c6c(c42)=NCCC=6C=N5)SC3=C1"
1940 nM

Can you check "CCN1CCN(CC(=O)Nc2nc3ccc(NCc4ccc(Cl)cc4)cc3s2)CC1" next?
2020 nM

Now give it for "Cn1ccnc1C(=O)/C=C/c1ccc(CC(=O)Nc2ccc(S(F)(F)(F)(F)F)cc2)cc1" too.
3590 nM

Same question, "CC(C)[C@@]12C[C@@H](OC(=O)COC(=O)/C=C/c3ccccc3)[C@@](C)(O1)[C@@H]1CC[C@@H](C)[C@H]1[C@@H]2OC(=O)/C=C/c1ccccc1" this time
> 100000 nM

# iterate: "CCCCCCC#Cc1ccccc1C#CCO"
18900 nM

And then "CN1CCN(c2nc(NCCCCNc3ccnc4cc(Cl)ccc34)c3ccccc3n2)CC1" , what is it?
2110 nM

----------
Tested on: MDA-MB-231 breast
Assay: NCI tumour cell line growth inhibition, 48 h
I'd be grateful if you could share measured GI50 for these entries.

Query GI50 on MDA-MB-231 breast for "CCN1CCN(CC(=O)Nc2nc3ccc(NCc4ccc(Cl)cc4)cc3s2)CC1"
1890 nM

// same read-out, input: "Cc1ccc(/C=C2/SC(Nc3nc(-c4nc(NC5=NC(=O)/C(=C\c6ccc(C)cc6)S5)sc4C)c(C)s3)=NC2=O)cc1"
1360 nM

What about this compound? "O=C1c2ccc3c4c5ccc(c24)C(=O)N1CCCOCCCCOCCCNCc1ccc(cc1)CNCCCOCCCCOCCCN(C3=O)C5=O"
1070 nM

// same read-out, input: "COc1ccc2c(c1)c(-c1nc(-c3c[nH]c4ncccc34)cs1)cn2CCCCN1CCOCC1"
1700 nM

How about CC(C)(O)C1CCC(Nc2ccc3ncc(-c4cccc(C(F)(F)F)c4)n3n2)CC1 (stereo not given) ?
1960 nM

----------
Please provide measured TGI for the entries that follow.
Test system: EKVX NSCLC
Experiment: NCI tumour cell line growth inhibition, 48 h

May I ask what TGI has been recorded for "COc1ccc(N=Nc2ccc3oc(=O)c(C(=O)Nc4ccccc4)cc3c2)cc1" ?
> 10 µM

Same question, "O=C1C=CC(=O)c2c(NCC3CC3)ccc(NCC3CC3)c21" this time
> 100 µM

What would you report for "CCN(CCCN(CC)C(=O)Nc1ccccc1)C(=O)Nc1ccccc1" ?
> 100 µM

And what about the compound CCO[C@@H]1CCC(S(=O)c2ccc(C)cc2)=CO1 (stereo partly drawn) ?
> 100 µM

// repeat for "CC1=C(C(=O)Nc2cccc(Cl)c2)C(c2ccc([N+](=O)[O-])cc2)C(C(=O)Nc2cccc(Cl)c2)=C(C)N1" and report
> 100 µM

Repeat with "O=C1NC(=S)NC(=O)C1C(c1ccc([N+](=O)[O-])cc1)C1C(=O)NC(=S)NC1=O"
> 100 µM

What about "CN1CCN(c2nc(NCCCCNc3ccnc4cc(Cl)ccc34)c3ccccc3n2)CC1" ?
40.7 µM

And then COc1cc(C(O)c2nc3ccccc3s2)cc(OC)c1OC (stereo not drawn) , what is it?
> 100 µM

Further, for COC(=O)C1=C(C(=O)OC)C2C(C)=CC(C)=CN2C(C#N)=C(SC)S1 (stereo not drawn) ?
64.9 µM

// repeat for "Cc1ccc2c(c1C)-c1c(ccc(C)c1C)C(=O)C2=O" and report
6.54 µM

Can you check "O=C(/C=C/c1ccc(Cl)c(Cl)c1)c1ccc(F)cc1" next?
55.3 µM

Continue with "C/C(=N\NC(=S)NC1CCCC1)c1ccccn1"
> 100 µM

Next up: "C/C([O-])=C1\Cc2ccccc2C1=O.C/C([O-])=C1\Cc2ccccc2C1=O.CC[O-].CC[O-].[Ti+4]"
> 100 µM

Also, "COc1cc(C[C@H]2C(=O)OC[C@@H]2Cc2ccc(OC)c(OC)c2)cc(OC)c1" please.
> 100 µM

Entry "Cc1nc(Nc2ccc(F)cc2)c2sc(=S)n(-c3ccc(F)cc3)c2n1" please
26.2 µM

For COc1cc(/C=C/C(=O)OC2C(O)C3CC(OC(=O)c4cc(OC)c(OC)c(OC)c4)CC2N3C)cc(OC)c1OC (stereo not drawn) then?
> 50 µM

Also Nc1ncnc2c1ncn2CC(O)C(=O)O (stereo not drawn) ?
> 100 µM

COCC1N=C(c2cc(OC)c(OC)c(OC)c2-c2cc3c(cc2C2OCCCO2)OCO3)O[C@H]1c1ccccc1 (stereo partly drawn) ?
> 100 µM

// repeat for "COc1cc2c3c(n(CCCNCC(OC)OC)c(=O)c2cc1OC)-c1cc2c(cc1C3=O)OCO2" and report
> 57.3 µM

Check "Cc1cnc(/N=c2\sc(C)cn2-c2ncc(C)s2)s1" too.
> 100 µM

# repeat for "COc1cc(-c2c(C#N)c(N)c(C#N)c3c2COc2ccccc2-3)cc(OC)c1OC"
> 69.4 µM

Next record, please: "O=C(O)CSCC(=O)O"
> 100 µM

Moving on to "CCCCNc1c(CN)cnc2cc(Cl)ccc12"
17.1 µM

Next record, please: "Nc1ccn(CCO)c(=O)n1"
> 100 µM

# iterate: "c1cc(CCN2CCCCC2)ccn1"
> 100 µM

What about this compound? "CS(=O)(=O)c1ccc(-c2cnc(N)c(C(=O)Nc3ccccc3)n2)cc1"
> 100 µM

Ok, now "O=C(CCCCCCSc1nc(-c2ccccc2)cc(-c2ccccc2)n1)NO"
17.2 µM

Another: "CCn1c2ccccc2c2ccc3c(c21)C(=O)c1ccccc1C3=O"
> 100 µM

----------
System: SW-620 colon
Experiment: NCI tumour cell line growth inhibition, 48 h
For each record, write down the corresponding TGI.

API: value(readout=TGI, system=SW-620 colon) for record "Cc1ccc2cc3c(ccc4ccccc43)c3c2c1CC3"
> 100 µM

Moving on to the next molecule: "CC(C)C[C@H](NC(=O)[C@H]1O[C@@H]1C(=O)O)C(=O)NCCc1ccc(O)cc1"
> 100 µM

And COC(=O)C1=C(C(=O)OC)C2C(C)=CC(C)=CN2C(C#N)=C(SC)S1 (centres undefined) ?
42.7 µM

Now this one: "N#Cc1cccc(C(=O)Nc2cccc(NC(=O)c3cccc(C#N)c3)c2)c1"
> 100 µM

What about "CN=CN(C)c1c2ccccc2nc2ccccc12" ?
> 100 µM

What do you get for "Cc1cc(OCc2nn(CN3CCN(C)CC3)c(=S)n2/N=C/c2ccc(-c3ccc(Cl)cc3Cl)o2)ccc1Cl" ?
51 µM

Try the molecule CCO[C@@H]1CCC(S(=O)c2ccc(C)cc2)=CO1 (some centres undefined)
> 100 µM

Try C=C(C)C(=O)OC1CC2=CC(CC3(C)OC3C3OC(=O)C(=C)C13)OC2=O (centres undefined) next.
5.03 µM

Further, for "C/C([O-])=C1\Cc2ccccc2C1=O.C/C([O-])=C1\Cc2ccccc2C1=O.CC[O-].CC[O-].[Ti+4]" ?
> 84.9 µM

Cool, now "Cc1cc(NC(=O)NC(=O)c2ccccc2N)ccc1Oc1ncc(Br)cn1"
> 100 µM

# iterate: "O=C(N/N=C/c1ccc([N+](=O)[O-])cc1)c1cccc2nc3ccccc3nc12"
> 100 µM

Repeat with "CCN1CN(c2ccccc2)C2(CCN(CCCSc3ccc(F)cc3)CC2)C1=O"
26.1 µM

Moving on to "CCOP(=O)(OCC)/C(C#N)=C/c1ccc(-c2ccc(F)cc2F)o1"
38.5 µM

Now the molecule "CCN1CCN(CC(=O)Nc2nc3ccc(NCc4ccc(Cl)cc4)cc3s2)CC1"
4.78 µM

Follow-up item: "NC(=O)NO"
> 2500 µM

Follow-up item: "COc1ccc(N=Nc2ccc3oc(=O)c(C(=O)Nc4ccccc4)cc3c2)cc1"
> 10 µM

For "CN(C)c1ccc(-c2cc(-c3ccc(Nc4nc(Nc5ccccc5)nc(Nc5ccc(Cl)cc5)n4)cc3)nc(N)n2)cc1" then?
21.8 µM

Check "COc1ccc2oc(=O)cc(C)c2c1" too.
> 100 µM

Entry to check: "O=C(c1ccco1)n1c2ccc(Br)cc2c2nc3ccccc3nc21"
> 100 µM

Note, next up: "COc1ccc(C(=O)c2sc(Nc3ccccc3)nc2N)cc1"
> 100 µM

Same lookup for "O/N=C/c1cc2c(cc1Br)OCO2" , please.
> 100 µM

Then "COc1ccc(C(=O)COc2cccc(/C=C3\CSc4ccccc4C3=O)c2)cc1" ?
0.707 µM

Moving on to the next molecule: "CC(=O)Oc1ccc2c(C)cc(=O)oc2c1"
> 100 µM

Next up: "CCN(CCCN(CC)C(=O)Nc1ccccc1)C(=O)Nc1ccccc1"
> 100 µM

Next: "CCC(CC)n1cc(C(=O)NC(=O)NCCCCCOC(=O)CCCCCCCCCCC(=O)OCCCCCNC(=O)NC(=O)c2cn(C(CC)CC)c(=O)[nH]c2=O)c(=O)[nH]c1=O"
> 100 µM

Next up: "O=C(c1ccccc1)[C@H]1Nc2ccc(Cl)cc2[C@H]2OCCC[C@@H]12"
39.1 µM

Record: "[C-]#[O+].[C-]#[O+].[C-]#[O+].[C-]#[O+].[Ir].[Ir].[O-]c1ccc2ccccc2c1C=Nc1ccc(N=Cc2c([O-])ccc3ccccc23)cc1"
> 100 µM

Another molecule: "CC(=O)O[C@@H]1[C@H]2[C@@H](OC(=O)c3ccccc3)[C@@H](C)C[C@]2(O)[C@H](OC(C)=O)[C@@]2(C)[C@@H]3CC(C)(C)C(=O)[C@]3(OC(C)=O)C[C@@]12C"
> 25 µM

// next record CC(=O)OC1COC(n2nc(/C=C/c3ccc(Cl)cc3)c(=O)n(/N=C/c3ccccc3)c2=S)C(OC(C)=O)C1OC(C)=O (centres undefined)
> 100 µM
